These entries and their values trace back to patent US7592344B2.

Target: human NK2 receptor (Homo sapiens)
Sequence (P21452 whole entry): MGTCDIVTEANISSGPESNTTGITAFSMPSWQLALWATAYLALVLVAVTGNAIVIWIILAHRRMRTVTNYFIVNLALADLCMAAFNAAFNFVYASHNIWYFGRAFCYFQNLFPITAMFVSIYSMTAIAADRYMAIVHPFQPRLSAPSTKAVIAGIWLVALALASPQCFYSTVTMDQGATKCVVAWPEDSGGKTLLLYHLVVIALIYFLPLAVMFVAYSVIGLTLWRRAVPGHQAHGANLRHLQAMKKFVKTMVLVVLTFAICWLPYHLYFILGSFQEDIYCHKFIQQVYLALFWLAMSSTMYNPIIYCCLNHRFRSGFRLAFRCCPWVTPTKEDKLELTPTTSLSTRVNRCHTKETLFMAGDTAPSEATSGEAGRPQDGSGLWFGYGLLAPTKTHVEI
Assay: Functional cellular test, Ca2+ measurement using FLIPR, NK2 (NKA stimulated CHO cells)
test_readout: Kb (nM)

[[record]]
molecule = "CN(C[C@@H](CCN1CCN([C@@H](c2cccs2)[C@H](O)CO)CC1)c1ccc(Cl)c(Cl)c1)C(=O)c1cc(C#N)cc2ccccc12"
measure_unit = "nM"
numeric_result = 10


[P] CC(=O)OCC(O)C(Cc1ccccc1)N1CCN(CCC(CN(C)C(=O)c2cc(C#N)cc3ccccc23)c2ccc(Cl)c(Cl)c2)CC1 (centres unmarked)
[Q] CC(=O)OC[C@@H](OC(C)=O)[C@H](c1ccco1)N1CCN(CC[C@H](CN(C)C(=O)c2cc(C#N)cc3ccccc23)c2ccc(Cl)c(Cl)c2)CC1
Request: // pick larger Kb from pair: P vs Q // caller expects the label of the chosen entry
Result: P

[a] COc1ccc([C@@H]([C@H](O)CO)N2CCN(CC[C@H](CN(C)C(=O)c3cc(C#N)cc4ccccc34)c3ccc(Cl)c(Cl)c3)CC2)cc1
[b] CN(CC(CCN1CCN(C(Cc2ccccc2)C(O)CO)CC1)c1ccc(Cl)c(Cl)c1)C(=O)c1cc(C#N)cc2ccccc12 (centres unmarked)
Request: // pick larger Kb from pair: a vs b // caller expects the label of the chosen entry
Result: b
